This listing pairs compounds with measured pIC50.
- Subject of test: Histone deacetylase 4 (Homo sapiens, UniProt P56524)
- Sequence (P56524 whole entry): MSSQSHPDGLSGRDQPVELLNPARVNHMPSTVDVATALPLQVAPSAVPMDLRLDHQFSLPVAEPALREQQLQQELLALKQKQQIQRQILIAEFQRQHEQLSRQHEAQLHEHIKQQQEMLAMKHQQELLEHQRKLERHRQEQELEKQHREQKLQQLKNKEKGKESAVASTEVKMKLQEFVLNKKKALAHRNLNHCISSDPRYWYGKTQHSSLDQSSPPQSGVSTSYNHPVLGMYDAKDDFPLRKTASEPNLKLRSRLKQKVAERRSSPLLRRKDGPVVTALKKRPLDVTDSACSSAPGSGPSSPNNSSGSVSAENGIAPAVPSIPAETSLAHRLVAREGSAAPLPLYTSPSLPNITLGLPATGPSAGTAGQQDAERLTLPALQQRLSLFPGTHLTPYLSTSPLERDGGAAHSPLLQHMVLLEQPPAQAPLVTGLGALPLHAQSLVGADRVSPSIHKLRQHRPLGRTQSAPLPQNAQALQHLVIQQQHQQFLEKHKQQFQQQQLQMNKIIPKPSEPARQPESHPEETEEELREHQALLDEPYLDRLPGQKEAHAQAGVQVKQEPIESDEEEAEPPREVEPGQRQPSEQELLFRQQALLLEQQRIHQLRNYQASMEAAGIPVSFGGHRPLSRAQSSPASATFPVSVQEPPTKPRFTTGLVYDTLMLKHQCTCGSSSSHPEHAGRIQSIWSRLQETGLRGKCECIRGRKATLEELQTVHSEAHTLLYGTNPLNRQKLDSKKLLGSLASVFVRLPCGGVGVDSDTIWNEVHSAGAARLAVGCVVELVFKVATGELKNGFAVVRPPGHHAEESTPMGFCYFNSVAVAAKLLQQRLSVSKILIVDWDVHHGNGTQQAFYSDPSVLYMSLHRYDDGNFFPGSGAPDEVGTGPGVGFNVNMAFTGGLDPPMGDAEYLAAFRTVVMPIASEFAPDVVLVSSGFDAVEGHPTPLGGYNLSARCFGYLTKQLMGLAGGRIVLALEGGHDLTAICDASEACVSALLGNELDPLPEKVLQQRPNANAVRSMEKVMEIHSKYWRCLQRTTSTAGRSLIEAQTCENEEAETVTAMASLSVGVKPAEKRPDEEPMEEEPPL
- Measurement notes: Inhibition of N-terminal GST-tagged recombinant human HDAC4 (627 to 1085) expressed in baculovirus using acetyl-Lys(trifluoroacetyl)-AMC as substrate after 2 hrs by fluorescence plate reader analysis
pIC50: −log10 of the molar value.

- Smiles structure: "Cn1cccc1C(=O)NCc1ccc(C(=O)NO)cc1"
  pIC50: 4.82
- Smiles structure: "Cn1cccc1C(=O)N1CCCc2cc(C(=O)NO)ccc2C1"
  pIC50: "< 4.30"

Consider `CC(C)(C)C(=O)N1Cc2ccc(C(=O)NO)cc2C1` . Its measured pIC50 is < 4.30

Consider `Cn1cccc1C(=O)N1CCc2cc(C(=O)NO)ccc2C1` . Its measured pIC50 is < 4.30

Consider `Cn1cccc1C(=O)N1Cc2ccc(C(=O)NO)cc2C1` . Its measured pIC50 is < 4.30

Consider `CC(C)(C)C(=O)N1CCc2cc(C(=O)NO)ccc2C1` . Its measured pIC50 is < 4.30

---

- Measurement notes: Permeability in human Caco2 cells at pH 7.4
- Type: ADME, cell-based
- Study conditions: Caco-2, pH 7.4, read-out: permeability
Measured metric: Papp (×10⁻⁶ cm/s)
Reply with just the number (in ×10⁻⁶ cm/s).

Consider `Cn1cccc1C(=O)N1CCc2cc(C(=O)NO)ccc2C1` . Its measured Papp is 22

---

- Measurement notes: Efflux ratio of permeability in human Caco2 cells at pH 7.4
- Type: ADME, cell-based
- Study conditions: Caco-2, pH 7.4
Measured metric: efflux ratio
Answer with a number only.

Consider `Cn1cccc1C(=O)N1CCc2cc(C(=O)NO)ccc2C1` . Its measured efflux ratio is 1.5

---

- Measurement notes: Selectivity ratio of IC50 for HDAC1/2 in human HeLa cell nuclear extract to IC50 for N-terminal GST-tagged recombinant HDAC6 (unknown origin)
- Type: cell-based
Measured metric: Ratio IC50
Answer with a number only.

Completed entries (count: 10):
- Smiles structure: "CC(C)(C)C(=O)N1CCc2sc(C(=O)NO)cc2C1"
  Measured metric: "Ratio IC50"
  Readout number: 64
- Smiles structure: "Cn1cccc1C(=O)NCc1ccc(C(=O)NO)cc1"
  Measured metric: "Ratio IC50"
  Readout number: 115
- Smiles structure: "Cn1cccc1C(=O)N1CCc2ccc(C(=O)NO)cc2CC1"
  Measured metric: "Ratio IC50"
  Readout number: 480
- Smiles structure: "O=C(NO)c1ccc2c(c1)CCN(C(=O)c1ccc(-c3ccccc3)cc1)CC2"
  Measured metric: "Ratio IC50"
  Readout number: 340
- Smiles structure: "Cn1cccc1C(=O)N1CCc2sc(C(=O)NO)cc2C1"
  Measured metric: "Ratio IC50"
  Readout number: 30
- Smiles structure: "Cn1cccc1C(=O)NCc1cnc(C(=O)NO)s1"
  Measured metric: "Ratio IC50"
  Readout number: 8
- Smiles structure: "O=C(NO)c1ccc(CNC(=O)C2CCCCC2)cc1"
  Measured metric: "Ratio IC50"
  Readout number: 84
- Smiles structure: "Cn1cccc1C(=O)NCc1ncc(C(=O)NO)s1"
  Measured metric: "Ratio IC50"
  Readout number: 123
- Smiles structure: "CC(C)(C)C(=O)N1Cc2ccc(C(=O)NO)cc2C1"
  Measured metric: "Ratio IC50"
  Readout number: 340
- Smiles structure: "CC(C)(C)C(=O)N1CCc2cc(C(=O)NO)sc2C1"
  Measured metric: "Ratio IC50"
  Readout number: 71

Consider `O=C(NO)c1ccc2c(c1)CCN(C(=O)C1CCCCCC1)C2` . Its measured Ratio IC50 is 650

Consider `Cn1cccc1C(=O)N1CCc2cc(C(=O)NO)sc2C1` . Its measured Ratio IC50 is 14

Consider `CC(C)(C)C(=O)N1CCc2cc(C(=O)NO)ccc2C1` . Its measured Ratio IC50 is 1500

Consider `Cn1cccc1C(=O)N1Cc2ccc(C(=O)NO)cc2C1` . Its measured Ratio IC50 is 690

Consider `O=C(NO)c1cc2c(s1)CCN(C(=O)C1CCCCC1)C2` . Its measured Ratio IC50 is 47

Consider `O=C(NO)c1ccc2c(c1)CCN(C(=O)C1CCCCC1)C2` . Its measured Ratio IC50 is 730

Consider `CC(C)(C)C(=O)N1CCc2ccc(C(=O)NO)cc2CC1` . Its measured Ratio IC50 is 340

Consider `O=C(NO)c1ccc2c(c1)CCCN(C(=O)c1ccc(-c3ccccc3)cc1)C2` . Its measured Ratio IC50 is 60

Consider `O=C(NO)c1cc2c(s1)CN(C(=O)C1CCCCC1)CC2` . Its measured Ratio IC50 is 50

Consider `O=C(NO)c1ccc2c(c1)CCN(C(=O)C1CCCCCC1)CC2` . Its measured Ratio IC50 is 340

---

- Subject of test: Histone deacetylase 5 (Homo sapiens, UniProt Q9UQL6)
- Sequence (Q9UQL6 whole entry): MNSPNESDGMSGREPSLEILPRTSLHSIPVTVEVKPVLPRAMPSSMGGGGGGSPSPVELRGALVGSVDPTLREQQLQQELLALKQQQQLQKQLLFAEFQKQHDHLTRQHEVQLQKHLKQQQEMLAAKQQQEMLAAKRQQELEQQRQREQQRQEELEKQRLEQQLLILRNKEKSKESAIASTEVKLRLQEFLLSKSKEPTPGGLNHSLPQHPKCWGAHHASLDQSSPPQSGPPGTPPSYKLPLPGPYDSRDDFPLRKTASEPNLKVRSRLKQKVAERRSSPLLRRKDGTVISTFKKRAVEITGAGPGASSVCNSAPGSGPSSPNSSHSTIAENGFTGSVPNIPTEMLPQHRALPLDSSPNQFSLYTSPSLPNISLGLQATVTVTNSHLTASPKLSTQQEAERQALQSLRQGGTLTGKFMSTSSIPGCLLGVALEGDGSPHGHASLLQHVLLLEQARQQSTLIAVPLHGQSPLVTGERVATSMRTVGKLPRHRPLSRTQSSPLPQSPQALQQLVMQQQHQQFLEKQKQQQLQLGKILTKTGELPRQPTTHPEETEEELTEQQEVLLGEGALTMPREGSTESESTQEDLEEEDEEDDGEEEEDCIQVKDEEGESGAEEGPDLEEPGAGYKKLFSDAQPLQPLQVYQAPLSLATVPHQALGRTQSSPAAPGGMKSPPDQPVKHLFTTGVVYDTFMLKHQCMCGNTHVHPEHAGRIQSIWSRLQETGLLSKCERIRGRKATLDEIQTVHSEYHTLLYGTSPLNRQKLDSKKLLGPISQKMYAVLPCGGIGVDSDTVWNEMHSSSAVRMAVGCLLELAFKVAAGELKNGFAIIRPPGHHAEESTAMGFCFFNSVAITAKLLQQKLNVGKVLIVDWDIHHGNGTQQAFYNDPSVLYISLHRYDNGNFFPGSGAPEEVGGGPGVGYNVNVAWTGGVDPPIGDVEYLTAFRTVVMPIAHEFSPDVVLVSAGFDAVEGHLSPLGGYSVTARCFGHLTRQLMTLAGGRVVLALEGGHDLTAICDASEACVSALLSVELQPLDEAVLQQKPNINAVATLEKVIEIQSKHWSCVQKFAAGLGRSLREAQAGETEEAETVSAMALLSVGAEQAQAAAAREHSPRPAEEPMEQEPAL
- Measurement notes: Inhibition of C-terminal His6x-tagged recombinant human HDAC5 (657 to 1123) expressed in baculovirus using acetyl-Lys(trifluoroacetyl)-AMC as substrate after 1 hr by fluorescence plate reader analysis
pIC50: −log10 of the molar value.
This listing pairs molecules with measured pIC50.

- Smiles structure: "Cn1cccc1C(=O)N1Cc2ccc(C(=O)NO)cc2C1"
  pIC50: "< 4.30"
- Smiles structure: "Cn1cccc1C(=O)N1CCCc2cc(C(=O)NO)ccc2C1"
  pIC50: "< 4.30"
- Smiles structure: "CC(C)(C)C(=O)N1CCc2cc(C(=O)NO)ccc2C1"
  pIC50: "< 4.30"
- Smiles structure: "Cn1cccc1C(=O)N1CCc2cc(C(=O)NO)ccc2C1"
  pIC50: "< 4.30"
- Smiles structure: "CC(C)(C)C(=O)N1Cc2ccc(C(=O)NO)cc2C1"
  pIC50: "< 4.30"

Consider `Cn1cccc1C(=O)NCc1ccc(C(=O)NO)cc1` . Its measured pIC50 is 5.48

---

- Subject of test: Protein deacetylase HDAC6 (Homo sapiens, UniProt Q9UBN7)
- Sequence (Q9UBN7 whole entry): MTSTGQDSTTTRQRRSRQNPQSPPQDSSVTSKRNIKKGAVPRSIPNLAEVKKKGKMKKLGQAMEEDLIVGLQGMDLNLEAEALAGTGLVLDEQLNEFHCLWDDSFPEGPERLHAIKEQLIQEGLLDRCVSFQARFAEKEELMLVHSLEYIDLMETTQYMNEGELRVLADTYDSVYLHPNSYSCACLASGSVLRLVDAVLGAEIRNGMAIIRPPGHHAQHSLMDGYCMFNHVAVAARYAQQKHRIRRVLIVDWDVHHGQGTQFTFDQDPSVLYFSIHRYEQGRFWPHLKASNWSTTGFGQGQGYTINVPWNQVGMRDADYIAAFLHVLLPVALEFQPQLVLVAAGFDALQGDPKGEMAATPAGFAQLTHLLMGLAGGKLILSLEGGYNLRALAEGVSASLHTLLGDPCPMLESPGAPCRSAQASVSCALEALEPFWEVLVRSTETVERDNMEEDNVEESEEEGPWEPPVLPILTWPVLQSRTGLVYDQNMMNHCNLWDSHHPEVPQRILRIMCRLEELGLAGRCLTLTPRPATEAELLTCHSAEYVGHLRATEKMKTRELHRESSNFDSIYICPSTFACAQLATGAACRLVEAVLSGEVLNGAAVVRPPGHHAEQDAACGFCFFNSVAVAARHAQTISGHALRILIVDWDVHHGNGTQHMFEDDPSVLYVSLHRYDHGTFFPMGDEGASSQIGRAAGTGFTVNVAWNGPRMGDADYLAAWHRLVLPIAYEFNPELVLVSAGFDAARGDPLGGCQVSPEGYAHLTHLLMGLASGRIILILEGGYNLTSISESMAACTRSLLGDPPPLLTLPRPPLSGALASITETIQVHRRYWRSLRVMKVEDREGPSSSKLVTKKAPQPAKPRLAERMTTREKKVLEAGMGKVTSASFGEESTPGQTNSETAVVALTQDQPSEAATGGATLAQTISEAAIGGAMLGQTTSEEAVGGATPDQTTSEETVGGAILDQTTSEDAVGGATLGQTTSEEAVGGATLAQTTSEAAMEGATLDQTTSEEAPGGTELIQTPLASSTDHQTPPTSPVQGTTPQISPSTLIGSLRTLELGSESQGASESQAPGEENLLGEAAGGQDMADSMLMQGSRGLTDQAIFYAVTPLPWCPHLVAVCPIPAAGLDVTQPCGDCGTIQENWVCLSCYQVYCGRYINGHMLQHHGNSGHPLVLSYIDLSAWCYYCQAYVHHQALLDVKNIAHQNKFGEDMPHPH
- Measurement notes: Inhibition of N-terminal GST-tagged recombinant HDAC6 (unknown origin) assessed as deacetylation of Ac-Arg-Gly-Lys (Ac) after 1 hr by fluorescence plate reader analysis in presence of trypsin
Measured metric: IC50 (nM)

- Smiles structure: "Cn1cccc1C(=O)NCc1cnc(C(=O)NO)s1"
  Subject of test: "Protein deacetylase HDAC6 (Homo sapiens, UniProt Q9UBN7)"
  IC50 / nM: 12000
- Smiles structure: "Cn1cccc1C(=O)N1Cc2ccc(C(=O)NO)cc2C1"
  Subject of test: "Protein deacetylase HDAC6 (Homo sapiens, UniProt Q9UBN7)"
  IC50 / nM: 40
- Smiles structure: "O=C(NO)c1cc2c(s1)CN(C(=O)C1CCCCC1)CC2"
  Subject of test: "Protein deacetylase HDAC6 (Homo sapiens, UniProt Q9UBN7)"
  IC50 / nM: 20

[I] CC(C)(C)C(=O)N1CCc2sc(C(=O)NO)cc2C1
[II] Cn1cccc1C(=O)N1CCc2sc(C(=O)NO)cc2C1
[III] O=C(NO)c1ccc(CNC(=O)C2CCCCC2)cc1
[IV] O=C(NO)c1ccc2c(c1)CCCN(C(=O)c1ccc(-c3ccccc3)cc1)C2
[ask] Exam item: list the entries in increasing order of IC50. Your answer should be the labels, listed in the requested order.
[reply] II, I, III, IV
(II: 24 nM, I: 47 nM, III: 76 nM, IV: 120 nM)

[A] CC(C)(C)C(=O)N1CCCc2cc(C(=O)NO)ccc2C1
[B] CC(C)(C)C(=O)N1CCc2ccc(C(=O)NO)cc2CC1
[C] CC(C)(C)C(=O)NCc1ccc(C(=O)NO)cc1
[D] Cn1cccc1C(=O)NCc1ccc(C(=O)NO)s1
[ask] Rank entries according to their IC50, from the largest number down. Your answer should be the labels, listed in the requested order.
[reply] A, B, C, D

[a] O=C(NO)c1ccc2c(c1)CCN(C(=O)C1CCCCC1)C2
[b] Cn1cccc1C(=O)N1CCCc2cc(C(=O)NO)ccc2C1
[c] Cn1cccc1C(=O)N1CCc2ccc(C(=O)NO)cc2CC1
[ask] Exam item: list the entries in increasing order of IC50. Your answer should be the labels, listed in the requested order.
[reply] a, c, b
(a: 50 nM, c: 130 nM, b: 260 nM)
